Tested System: T1, Activin A (UniProt P08476 311-426)
T1 construct: also called ActA
T1 sequence (looked up): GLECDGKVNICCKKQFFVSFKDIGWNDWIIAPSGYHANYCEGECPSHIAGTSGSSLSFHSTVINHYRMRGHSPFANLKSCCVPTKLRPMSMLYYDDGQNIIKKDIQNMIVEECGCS
Test Name: BiaCore; receptor-Fc captured by anti-hFc antibody, ligand injected
pKd: −log10 of the molar value.
Each entry below lists one item and its recorded pKd value.
Readout Name: pKd

Binder	Readout Name	Recorded Number
ActRIIB(A24N 20-134)-hFc (Fc fusion, also called A24N variant; not shown: linker (if any) and human Fc (hFc)) GRGENETRECIYYNANWELERTNQSGLERCEGEQDKRLHCYASWRNSSGTIELVKKGCWLDDFNCYDRQECVATEENPQVYFCCCEGNFCNERFTHLPEAGGPEVTYEPPPTAPT	pKd	9.98
ActRIIB(P129S, P130R 20-134)-hFc (Fc fusion, T0017 prints a P129S P130A variant; kept as a separate molecule; not shown: linker (if any) and human Fc (hFc)) GRGEAETRECIYYNANWELERTNQSGLERCEGEQDKRLHCYASWRNSSGTIELVKKGCWLDDFNCYDRQECVATEENPQVYFCCCEGNFCNERFTHLPEAGGPEVTYEPSRTAPT	pKd	10.08
ActRIIB(20-134)-hFc (Fc fusion, not shown: linker (if any) and human Fc (hFc)) GRGEAETRECIYYNANWELERTNQSGLERCEGEQDKRLHCYASWRNSSGTIELVKKGCWLDDFNCYDRQECVATEENPQVYFCCCEGNFCNERFTHLPEAGGPEVTYEPPPTAPT	pKd	10.57
